tested on: 922993-354-T-J3-PDC complex spheroid viability; assay: Anticancer human tumor 922993-354-T-J3-PDC patient-derived endometrial carcinoma cell line growth inhibition [POLQ]; conditions: second compound 10 µM; first compound 10 µM; hits give low values;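 note: spheroids exposed to the agents for one week; 100% = DMSO vehicle control wells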
quantity.kind: viability, T/C (%)
The figure you give is taken to be in %; do not add the unit.

compound	target.or.test.system	uom	viability, T/C
C#Cc1c(F)ccc2cc(O)cc(-c3ncc4c(N5CC6CCC(C5)N6)nc(OCC56CCCN5CC(F)C6)nc4c3F)c12 (configuration not stated) + COC1C(OC(N)=O)C(O)C(Oc2ccc3c(O)c(NC(=O)c4ccc(O)c(CC=C(C)C)c4)c(=O)oc3c2C)OC1(C)C	922993-354-T-J3-PDC complex spheroid viability	%	72.1

Just so you know, measured viability, T/C for COc1cccc2c1C(=O)c1c(O)c3c(c(O)c1C2=O)CC(O)(C(=O)CO)CC3OC1CC(N)C(O)C(C)O1 (configuration not stated) + COC1C(OC(N)=O)C(O)C(Oc2ccc3c(O)c(NC(=O)c4ccc(O)c(CC=C(C)C)c4)c(=O)oc3c2C)OC1(C)C came out at 10.4
